target or system: mouse HER2 (23-653) (Mus musculus, UniProt P70424)
method: TR-FRET competition assay for peptide potency, mouse HER2
Format: binding
Parameters: mouse HER2 (23-653) using a Cy5 labeled peptide as a probe; made in house; host or cells: mammalian cells
condition label: moHER2 TR-FRET IC50, TR-FRET competition with Cy5 labeled peptide probe, 0.1 nM mouse HER2, 24 h incubation
Structures can show the parent of a compound that is named as a salt. Positions of bridges follow the written chain, without caps; N, C: chain ends. Non-standard residues stand in square brackets, D forms with d. Residues, ends and D or L forms follow the SMILES beside them. Trp(5-OH) = N[C@@H](Cc1c[nH]c2ccc(O)cc12)C(=O)O; NMePhe(4-F) = CN[C@@H](Cc1ccc(F)cc1)C(=O)O; NMehPhe = CN[C@@H](CCc1ccccc1)C(=O)O; NMeE = CN[C@@H](CCC(=O)O)C(=O)O; Gly(cPr) = N[C@H](C(=O)O)C1CC1; NMeS = CN[C@@H](CO)C(=O)O; Dap = NC[C@H](N)C(=O)O
Consider the following compounds and their measured pIC50 readings.
Note on pIC50: it is the negative log10 of concentration, concentration in mol/L.

{"compound": "CN1C(=O)[C@H](CO)NC(=O)[C@H](Cc2ccc(O)cc2)NC(=O)[C@@H](N)CCC(=O)NC[C@@H](C(=O)N(C)[C@@H](Cc2ccc(F)cc2)C(N)=O)N(C)C(=O)[C@H](C2CC2)NC(=O)[C@H](Cc2c[nH]c3ccccc23)NC(=O)[C@H](Cc2c[nH]c3ccc(O)cc23)NC(=O)[C@H](CCCCNC(=O)C(F)(F)F)N(C)C(=O)[C@@H]1CCc1ccccc1 [Example A33, TFA salt]", "target or system": "mouse HER2 (23-653) (Mus musculus, UniProt P70424)", "pIC50": 7.49}

Here's the next entry for you.
Qu. I'd like to know its pIC50. The compound in question is CN1C(=O)[C@H](CO)NC(=O)[C@H](Cc2ccc(O)cc2)NC(=O)[C@@H](N)CNC(=O)CC[C@@H](C(=O)N(C)[C@@H](Cc2ccc(F)cc2)C(N)=O)N(C)C(=O)[C@H](C2CC2)NC(=O)[C@H](Cc2c[nH]c3ccccc23)NC(=O)[C@H](Cc2c[nH]c3ccc(O)cc23)NC(=O)[C@H](CO)N(C)C(=O)[C@@H]1CCc1ccccc1 [Example A34, TFA salt] (H-[Dap]YS[NMehPhe][NMeS][Trp(5-OH)]W[Gly(cPr)][NMeE][NMePhe(4-F)]-NH2; lactam 1-9)
Ans. 6.53

Source listed as patent US20250332300A1.
